Experimental Protocol: Pharmacokinetics in rats, plasma concentration by fluorimetry
Assay type: in vivo, Sprague-Dawley rats
Test Parameters: IP 200 mg/kg, rat
Readout: Cmax (µM)

mol=O=c1c(OS(=O)(=O)O)c(-c2ccc(OS(=O)(=O)O)c(OS(=O)(=O)O)c2)oc2cc(OS(=O)(=O)O)cc(OCCCOc3cc(OS(=O)(=O)O)cc4oc(-c5ccc(OS(=O)(=O)O)c(OS(=O)(=O)O)c5)c(OS(=O)(=O)O)c(=O)c34)c12 observed_measurement=925

Origin of the recorded values: patent US12358941B2
